Test Target: bradykinin B2 receptor (Cavia porcellus, UniProt O70526)
Sequence (O70526 1-372): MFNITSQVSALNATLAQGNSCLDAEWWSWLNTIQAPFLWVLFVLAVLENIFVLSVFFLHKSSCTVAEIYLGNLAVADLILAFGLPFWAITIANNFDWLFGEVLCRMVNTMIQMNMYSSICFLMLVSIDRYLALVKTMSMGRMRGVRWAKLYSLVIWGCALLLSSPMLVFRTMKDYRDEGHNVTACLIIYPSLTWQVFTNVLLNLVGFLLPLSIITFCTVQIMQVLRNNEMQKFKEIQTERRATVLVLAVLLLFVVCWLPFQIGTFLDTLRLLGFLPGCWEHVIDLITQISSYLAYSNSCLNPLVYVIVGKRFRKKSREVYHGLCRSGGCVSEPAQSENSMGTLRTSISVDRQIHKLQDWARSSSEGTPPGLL
Value Type: Ki (nM)

I = Cc1ccc2cccc(OCc3c(Cl)ccc(OCCNC(=O)/C=C/c4ccccc4)c3Cl)c2n1
II = COc1ccc(/C=C/C(=O)NCCOc2ccc(Cl)c(COc3cccc4ccc(C)nc34)c2Cl)cc1
Compare I and II and name the one whose reported Ki is smaller. Please reply using the label of the selected record.
II
